System: 941728-121-R-J1-PDC complex spheroid viability
protocol: Anticancer human tumor 941728-121-R-J1-PDC patient-derived lung adenocarcinoma cell line growth inhibition [RAS]; active means viability on the fitted dose curve at most 10% of control; inactive means the rest
conditions.used: second compound 0.00949 µM; first compound 10 µM
Outcome field: choose from t (active), f (inactive)

For CC1(O)CCCC1n1c(=O)c(C(F)F)cc2cnc(NC3CCN(S(C)(=O)=O)CC3)nc21 (configuration not stated) + CCn1c(-c2cccnc2C(C)OC)c2c3cc(ccc31)N1CCOC(CC(NC(=O)C(C(C)C)N(C)C(=O)C3(F)CCN(C(=O)C#CC(C)(C)N(C)C)CC3)C(=O)N3CCCC(N3)C(=O)OCC(C)(C)C2)C1 , what call appears in the results of this test?
f

Try this molecule next: Cc1nc(N2CCC3(CC2)COC(C)C3N)c(CO)nc1Sc1ccnc(N)c1Cl (configuration not stated) + CCn1c(-c2cccnc2C(C)OC)c2c3cc(ccc31)N1CCOC(CC(NC(=O)C(C(C)C)N(C)C(=O)C3(F)CCN(C(=O)C#CC(C)(C)N(C)C)CC3)C(=O)N3CCCC(N3)C(=O)OCC(C)(C)C2)C1
f

Try this molecule next: CC(C)NCC(C(=O)N1CCN(c2ncnc3c2C(C)CC3O)CC1)c1ccc(Cl)cc1 (configuration not stated) + CCn1c(-c2cccnc2C(C)OC)c2c3cc(ccc31)N1CCOC(CC(NC(=O)C(C(C)C)N(C)C(=O)C3(F)CCN(C(=O)C#CC(C)(C)N(C)C)CC3)C(=O)N3CCCC(N3)C(=O)OCC(C)(C)C2)C1
f

Try this molecule next: C[C@@H](NC(=O)c1ncnc(N)c1Cl)c1ncc(C(=O)Nc2cc(C(F)(F)F)c(Cl)cn2)s1 + CCn1c(-c2cc(N3CCN(C)CC3)cnc2C(C)OC)c2c3cc(ccc31)-c1csc(n1)CC(NC(=O)C1CC1C)C(=O)N1CCCC(N1)C(=O)OCC(C)(C)C2
f

Try this molecule next: CC(=O)OC12COC1CC(O)C1(C)C(=O)C(O)C3=C(C)C(OC(=O)C(O)C(NC(=O)OC(C)(C)C)c4ccccc4)CC(O)(C(OC(=O)c4ccccc4)C21)C3(C)C (configuration not stated) + CCn1c(-c2cccnc2C(C)OC)c2c3cc(ccc31)N1CCOC(CC(NC(=O)C(C(C)C)N(C)C(=O)C3(F)CCN(C(=O)C#CC(C)(C)N(C)C)CC3)C(=O)N3CCCC(N3)C(=O)OCC(C)(C)C2)C1
f

Try this molecule next: CC(=O)OC12COC1CC(O)C1(C)C(=O)C(O)C3=C(C)C(OC(=O)C(O)C(NC(=O)OC(C)(C)C)c4ccccc4)CC(O)(C(OC(=O)c4ccccc4)C21)C3(C)C (configuration not stated) + CCn1c(-c2cc(N3CCN(C)CC3)cnc2C(C)OC)c2c3cc(ccc31)-c1csc(n1)CC(NC(=O)C1CC1C)C(=O)N1CCCC(N1)C(=O)OCC(C)(C)C2
f

Try this molecule next: CC(Nc1ccc2c(c1)OCCn1cc(N3C(=O)OCC3C(F)F)nc1-2)C(N)=O (configuration not stated) + CCn1c(-c2cc(N3CCN(C)CC3)cnc2C(C)OC)c2c3cc(ccc31)-c1csc(n1)CC(NC(=O)C1CC1C)C(=O)N1CCCC(N1)C(=O)OCC(C)(C)C2
t

* * *

Test system: 941728-121-R-J1-PDC complex spheroid viability
protocol: Anticancer human tumor 941728-121-R-J1-PDC cell line growth inhibition [RAS];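 further: spheroids exposed to compounds for 7 days before readout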
conditions.used: curve of first compound; second compound 0.3 µM
pIC50: −log10 of the molar value.
value.type: pIC50

For the compound CCN1CCN(Cc2ccc(Nc3ncc(F)c(-c4cc(F)c5nc(C)n(C(C)C)c5c4)n3)nc2)CC1 + CCn1c(-c2cccnc2C(C)OC)c2c3cc(ccc31)N1CCOC(CC(NC(=O)C(C(C)C)N(C)C(=O)C3(F)CCN(C(=O)C#CC(C)(C)N(C)C)CC3)C(=O)N3CCCC(N3)C(=O)OCC(C)(C)C2)C1 , what pIC50 is on record?
> 8.50

Try this compound next: CCc1c2c(nc3ccc(O)cc13)-c1cc3c(c(=O)n1C2)COC(=O)[C@]3(O)CC + CCn1c(-c2cc(N3CCN(C)CC3)cnc2C(C)OC)c2c3cc(ccc31)-c1csc(n1)CC(NC(=O)C1CC1C)C(=O)N1CCCC(N1)C(=O)OCC(C)(C)C2
> 9.02

Try this compound next: CC(=O)OC12COC1CC(O)C1(C)C(=O)C(O)C3=C(C)C(OC(=O)C(O)C(NC(=O)OC(C)(C)C)c4ccccc4)CC(O)(C(OC(=O)c4ccccc4)C21)C3(C)C (centres undefined) + CCn1c(-c2cc(N3CCN(C)CC3)cnc2C(C)OC)c2c3cc(ccc31)-c1csc(n1)CC(NC(=O)C1CC1C)C(=O)N1CCCC(N1)C(=O)OCC(C)(C)C2
> 7.50

Try this compound next: Nc1ccn(C2OC(CO)C(O)C2(F)F)c(=O)n1 (centres undefined) + CCn1c(-c2cc(N3CCN(C)CC3)cnc2C(C)OC)c2c3cc(ccc31)-c1csc(n1)CC(NC(=O)C1CC1C)C(=O)N1CCCC(N1)C(=O)OCC(C)(C)C2
> 8.50

* * *

What viability, T/C was measured for each of the following?
Tested on: 941728-121-R-J1-PDC complex spheroid viability
protocol: Anticancer human tumor 941728-121-R-J1-PDC cell line growth inhibition [RAS];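 further: spheroids exposed to compounds for 7 days before readout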;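 on viability, T/C: 100% = DMSO vehicle control viability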
conditions.used: compound 0.0949 µM; stronger effect = lower value

For the compound CCc1c2c(nc3ccc(O)cc13)-c1cc3c(c(=O)n1C2)COC(=O)[C@]3(O)CC , what viability, T/C is on record?
58.9% [middle of 4 runs]

Try this compound next: CCn1c(-c2cc(N3CCN(C)CC3)cnc2C(C)OC)c2c3cc(ccc31)-c1csc(n1)CC(NC(=O)C1CC1C)C(=O)N1CCCC(N1)C(=O)OCC(C)(C)C2 (centres undefined)
14.7% [middle of 8 runs]

Try this compound next: CCn1c(-c2cccnc2C(C)OC)c2c3cc(ccc31)N1CCOC(CC(NC(=O)C(C(C)C)N(C)C(=O)C3(F)CCN(C(=O)C#CC(C)(C)N(C)C)CC3)C(=O)N3CCCC(N3)C(=O)OCC(C)(C)C2)C1 (centres undefined)
24.9% [middle of 8 runs]

Try this compound next: CC1(C)CCC(Nc2ncc(C(F)(F)F)c(-c3c[nH]c4c(P(C)(C)=O)c(C#N)ccc34)n2)CN1 (centres undefined)
65% [middle of 4 runs]

* * *

Test system: 941728-121-R-J1-PDC complex spheroid viability
protocol: Anticancer human tumor 941728-121-R-J1-PDC cell line growth inhibition [RAS];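 further: spheroids exposed to compounds for 7 days before readout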;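 on viability, T/C: 100% = DMSO vehicle control viability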
conditions.used: second compound 0.3 µM; first compound 0.0316 µM; stronger effect = lower value
value.type: viability, T/C (%)
Lab book: enter the figure in %, no units written.

For the compound CC1(O)CCCC1n1c(=O)c(C(F)F)cc2cnc(NC3CCN(S(C)(=O)=O)CC3)nc21 (configuration not stated) + CCn1c(-c2cccnc2C(C)OC)c2c3cc(ccc31)N1CCOC(CC(NC(=O)C(C(C)C)N(C)C(=O)C3(F)CCN(C(=O)C#CC(C)(C)N(C)C)CC3)C(=O)N3CCCC(N3)C(=O)OCC(C)(C)C2)C1 , what viability, T/C is on record?
22.5

Try this compound next: Cc1nc(N2CCC3(CC2)COC(C)C3N)c(CO)nc1Sc1ccnc(N)c1Cl (configuration not stated) + CCn1c(-c2cccnc2C(C)OC)c2c3cc(ccc31)N1CCOC(CC(NC(=O)C(C(C)C)N(C)C(=O)C3(F)CCN(C(=O)C#CC(C)(C)N(C)C)CC3)C(=O)N3CCCC(N3)C(=O)OCC(C)(C)C2)C1
22.1

* * *

System: 941728-121-R-J1-PDC complex spheroid viability
protocol: Anticancer human tumor 941728-121-R-J1-PDC cell line growth inhibition [RAS];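 further: spheroids exposed to compounds for 7 days before readout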;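 on viability, T/C: 100% = DMSO vehicle control viability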
conditions.used: second compound 0.000949 µM; first compound 0.00949 µM; stronger effect = lower value
From the text: RAS pathway inhibitors in Combinations in Complex Spheroids A high-throughput screen of multi-cell type tumor spheroids was designed to identify active combinations of RAS pathway inhibitors and targeted small molecules. Complex spheroids include a stromal component modeled by human endothelial cells (HUVEC) and fibroblasts modeled by human mesenchymal stem cells (MSCs). […] Compounds. […] If the clinical Cmax for an agent had not been determined, the highest concentration tested was 10 microM. […]
What viability, T/C was measured for each of the following?

For the compound CC1(C)CCC(Nc2ncc(C(F)(F)F)c(-c3c[nH]c4c(P(C)(C)=O)c(C#N)ccc34)n2)CN1 (centres undefined) + CCn1c(-c2cc(N3CCN(C)CC3)cnc2C(C)OC)c2c3cc(ccc31)-c1csc(n1)CC(NC(=O)C1CC1C)C(=O)N1CCCC(N1)C(=O)OCC(C)(C)C2 , what viability, T/C is on record?
23.5%

Try this compound next: CC1(C)CCC(Nc2ncc(C(F)(F)F)c(-c3c[nH]c4c(P(C)(C)=O)c(C#N)ccc34)n2)CN1 (centres undefined) + CCn1c(-c2cccnc2C(C)OC)c2c3cc(ccc31)N1CCOC(CC(NC(=O)C(C(C)C)N(C)C(=O)C3(F)CCN(C(=O)C#CC(C)(C)N(C)C)CC3)C(=O)N3CCCC(N3)C(=O)OCC(C)(C)C2)C1
16.3%

Try this compound next: CCc1c2c(nc3ccc(O)cc13)-c1cc3c(c(=O)n1C2)COC(=O)[C@]3(O)CC + CCn1c(-c2cccnc2C(C)OC)c2c3cc(ccc31)N1CCOC(CC(NC(=O)C(C(C)C)N(C)C(=O)C3(F)CCN(C(=O)C#CC(C)(C)N(C)C)CC3)C(=O)N3CCCC(N3)C(=O)OCC(C)(C)C2)C1
14.2%

Try this compound next: CCc1c2c(nc3ccc(O)cc13)-c1cc3c(c(=O)n1C2)COC(=O)[C@]3(O)CC + CCn1c(-c2cc(N3CCN(C)CC3)cnc2C(C)OC)c2c3cc(ccc31)-c1csc(n1)CC(NC(=O)C1CC1C)C(=O)N1CCCC(N1)C(=O)OCC(C)(C)C2
19.9%
